# Test system: trichomonal hydrolases
# method-description: Experiment 2: hydrolysis of substrates by trichomonal hydrolases with or without NVS, absorbance 540 nm
# Type: biochemical, Trichomonas vaginalis
# assay-conditions: pH 8 TRIS; absorbance at 540 nm per method
Peptide text beside a SMILES is read from it. * marks the point of attachment. AMC = Cc1cc(=O)oc2cc(N*)ccc12; Cbz = O=C(OCc1ccccc1)*; Boc = CC(C)(C)OC(=O)*
reported-metric: Color Scores: Trichomonal hydrolases
Answers are plain numbers.

Study these solved cases before continuing.
Cc1cc(=O)oc2cc(NC(=O)[C@H](CCCN=C(N)N)NC(=O)[C@H](CCCCN)NC(=O)[C@H](CC(C)C)NC(=O)OC(C)(C)C)ccc12 [BLKR-AMC, BOC-Leu-Lys-Arg-AMC] (Boc-Leu-Lys-Arg-{AMC}) | 0.649
Cc1cc(=O)oc2cc(NC(=O)[C@H](CCCNC(=N)N)NC(=O)[C@H](CCCCN)NC(=O)[C@H](CCCCN)NC(=O)OCc3ccccc3)ccc12 [ZKKR-AMC, CBZ-Lys-Lys-Arg-AMC] (Cbz-Lys-Lys-Arg-{AMC}) | 0.357
Cc1cc(=O)oc2cc(NC(=O)[C@H](CCCN=C(N)N)NC(=O)[C@H](CCCN=C(N)N)NC(=O)[C@H](CC(C)C)NC(=O)OC(C)(C)C)ccc12 [BLRR-AMC, BOC-Leu-Arg-Arg-AMC] (Boc-Leu-Arg-Arg-{AMC}) | 0.463

Query molecule follows.
Param item = COc1cc(NC(=O)[C@H](CCCN=C(N)N)NC(=O)[C@H](CCCN=C(N)N)NC(=O)OCc2ccccc2)cc2ccccc12 ; retrieve measured Color Scores: Trichomonal hydrolases.
0.385

###

# System: trichomonal hydrolases
# method-description: Experiment 13: hydrolysis of peptide substrates by trichomonal hydrolases at low pH, no vaginal fluid
# Assay type: biochemical, Trichomonas vaginalis
# Design: key: −: No red color produced; +: Clearly visible red color produced; ++: Moderately intense red color produced; +++: Very intense red color produced
# assay-conditions: without vaginal fluid; threonine buffer pH 2.4; 2 mM substrate solution; 10 min 25° C.; Fast Garnet
Peptide text beside a SMILES is read from it. * marks the point of attachment. NH(4-MeO-2-naphthyl) = COc1cc(N*)cc2ccccc12; βNA = c1ccc2cc(N*)ccc2c1; Cbz = O=C(OCc1ccccc1)*; Bz = O=C(c1ccccc1)*
reported-metric: Color Score

Study these solved cases before continuing.
CC(C)C[C@H](NC(=O)CNC(=O)CNC(=O)OCc1ccccc1)C(=O)Nc1ccc2ccccc2c1 [CBZ-Gly-Gly-Leu-βNA] (Cbz-Gly-Gly-Leu-βNA) | −
COc1cc(NC(=O)C(CCCNC(=N)N)NC(=O)C2CCCN2C(=O)CNC(=O)OCc2ccccc2)cc2ccccc12 (stereo not drawn) [CBZ-Gly-Pro-Arg-MNA] | −
COc1cc(NC(=O)[C@@H]2CCCN2C(=O)CN)cc2ccccc12 [Gly-Pro-MNA] | −
N[C@@H](CO)C(=O)Nc1ccc2ccccc2c1 [Ser-βNA] | −
COc1cc(NC(=O)C(CO)NC(=O)C(N)Cc2cnc[nH]2)cc2ccccc12 (stereo not drawn) [His-Ser-MNA] | −

Each molecule below has a reported value. Please supply its Color Score.
1. N=C(N)NCCC[C@H](NC(=O)[C@H](Cc1ccccc1)NC(=O)[C@@H]1CCCN1C(=O)c1ccccc1)C(=O)Nc1ccc2ccccc2c1 [BZ-Pro-Phe-Arg-βNA] (Bz-Pro-Phe-Arg-βNA)
2. COc1cc(NC(=O)C(CCCCN)NC(=O)C(CC(C)C)NC(=O)C(N)C(C)C)cc2ccccc12 [VLK-MNA, D-Val-Leu-Lys-MNA]
3. COc1cc(NC(=O)[C@H](CCCN=C(N)N)NC(=O)[C@H](CCCCN)NC(=O)[C@H](CCCCN)NC(=O)[C@@H](NC(=O)OCc2ccccc2)C(C)C)cc2ccccc12 [CBZ-Val-Lys-Lys-Arg-MNA] (Cbz-VKKR-{NH(4-MeO-2-naphthyl)})
4. COc1cc(NC(=O)C(Cc2ccccc2)NC(=O)CN)cc2ccccc12 (stereo not drawn) [Gly-Phe-MNA]

−
++
+
−

Each molecule below has a reported value. Please supply its Color Score.
1. COc1cc(NC(=O)[C@H](CCCN=C(N)N)NC(=O)[C@H](CC(C)C)NC(=O)OCc2ccccc2)cc2ccccc12 [ZLR, CBZ-Leu-Arg-MNA]
2. COc1cc(NC(=O)C(CCCN=C(N)N)NC(=O)C2CCCN2)cc2ccccc12 (stereo not drawn) [Pro-Arg-MNA]
3. N=C(N)NCCC[C@H](NC(=O)[C@@H](N)CCCNC(=N)N)C(=O)Nc1ccc2ccccc2c1 [Arg-Arg-βNA] (H-Arg-Arg-βNA)
4. COc1cc(NC(=O)[C@H](CCCNC(=N)N)NC(=O)[C@@H](NC(=O)OCc2ccccc2)C(C)C)cc2ccccc12 [ZVR, CBZ-Val-Arg-MNA]
5. CC[C@H](C)[C@H](N)C(=O)Nc1ccc2ccccc2c1 [Ile-βNA]
6. COc1cc(NC(=O)[C@H](CCCNC(=N)N)NC(=O)[C@H](CCCNC(=N)N)NC(=O)[C@H](CC(C)C)NC(=O)OCc2ccccc2)cc2ccccc12 [CBZ-Leu-Arg-Arg-MNA]
7. COc1cc(NC(=O)[C@H](CCCNC(=N)N)NC(=O)[C@H](CCCCN)NC(=O)[C@H](CCCCN)NC(=O)OCc2ccccc2)cc2ccccc12 [CBZ-Lys-Lys-Arg-MNA]
8. N[C@@H](CO)C(=O)N[C@@H](Cc1ccc(O)cc1)C(=O)Nc1ccc2ccccc2c1 [Ser-Tyr-βNA] (H-Ser-Tyr-βNA)

+++
−
−
+++
−
+
+
−

Each molecule below has a reported value. Please supply its Color Score.
1. O=C(Nc1ccc2ccccc2c1)[C@@H]1C[C@@H](O)CN1 [Hyp-βNA]
2. COc1cc(NC(=O)[C@H](CCCNC(=N)N)NC(=O)[C@@H](NC(=O)[C@H](Cc2ccccc2)NC(=O)c2ccccc2)C(C)C)cc2ccccc12 [BZ-Phe-Val-Arg-MNA]
3. COc1cc(NC(=O)C(N)CC(C)C)cc2ccccc12.Cl (stereo not shown) [Leu-MNA]
4. COc1cc(NC(=O)[C@@H](N)Cc2ccccc2)cc2ccccc12 [Phe-MNA]

["−", "++", "−", "−"]

###

# System: trichomonal hydrolases
# method-description: Experiment 13: hydrolysis of peptide substrates by trichomonal hydrolases at low pH, no vaginal fluid
# Assay type: biochemical, Trichomonas vaginalis
# Set-up: key: −: No red color produced; +: Clearly visible red color produced; ++: Moderately intense red color produced; +++: Very intense red color produced
# assay-conditions: without vaginal fluid; threonine buffer pH 2.4; 2 mM substrate solution; 10 min 25° C.; Fast Garnet
Peptide text beside a SMILES is read from it. * marks the point of attachment. βNA = c1ccc2cc(N*)ccc2c1
reported-metric: Color Score

Study these solved cases before continuing.
COc1cc(NC(=O)[C@H](CCCN=C(N)N)NC(=O)[C@H](CCCN=C(N)N)NC(=O)[C@H](C)NC(=O)OCc2ccccc2)cc2ccccc12 | ++
COc1cc(NC(=O)C(Cc2ccccc2)NC(=O)CNC(=O)C(N)CCC(N)=O)cc2ccccc12 (stereo not shown) | −
N[C@@H](Cc1c[nH]c2ccccc12)C(=O)Nc1ccc2ccccc2c1 | −
C[C@H](N)C(=O)N[C@@H](C)C(=O)Nc1ccc2ccccc2c1 [Ala-Ala-βNA] (H-Ala-Ala-βNA) | −
COc1cc(NC(=O)[C@H](CCCN=C(N)N)NC(=O)[C@H](CCCN=C(N)N)NC(=O)OCc2ccccc2)cc2ccccc12 | ++

Each compound below has a reported value. Please supply its Color Score.
1. NCC(=O)N[C@@H](Cc1ccccc1)C(=O)Nc1ccc2ccccc2c1 [Gly-Phe-βNA] (H-Gly-Phe-βNA)
2. NCCCC[C@H](NC(=O)OCc1ccccc1)C(=O)Nc1ccc2ccccc2c1

1. −
2. −
